system-tested: KRAS G12V (Homo sapiens, UniProt P01116, G12V)
Sequence (P01116 with tags, fused parts or gaps isoform P01116-2 G12V): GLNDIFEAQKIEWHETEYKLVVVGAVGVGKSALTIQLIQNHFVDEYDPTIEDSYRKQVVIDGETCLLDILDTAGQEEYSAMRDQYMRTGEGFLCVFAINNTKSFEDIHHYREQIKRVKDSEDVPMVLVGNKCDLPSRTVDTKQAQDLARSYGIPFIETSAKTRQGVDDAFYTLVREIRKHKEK
assay-details: SOS-catalyzed nucleotide exchange assay, KRAS G12V (Procedure A)
Format: biochemical
experimental-setup: GNE
pIC50: −log10 of the molar value.
assay-endpoint: pIC50

Worked set:
| compound | pIC50 |
| --- | --- |
| Fc1ccc2cc3[nH]ncc3c(-c3nccc4c3sc3nc(OC[C@@]56CCCN5C[C@H](F)C6)nc(N5C[C@H]6CC[C@@H](C5)N6)c34)c2c1 [Ex-57] | 5.68 |
| Cc1cc2[nH]ncc2c(-c2nccc3c2sc2nc(OC[C@@]45CCCN4C[C@H](F)C5)nc(N4C[C@H]5CC[C@@H](C4)N5)c23)c1C(F)(F)F [Ex-12] | 5.68 |
| F[C@H]1CN2CCC[C@@]2(COc2nc(N3C[C@H]4CC[C@@H](C3)N4)c3c(n2)sc2c(-c4c(C5(F)CC5)c(C(F)(F)F)cc5[nH]ncc45)nccc23)C1 [Ex-79] | 5.35 |

1. Cc1cc2[nH]ncc2c(-c2nccc3c2sc2nc(OC[C@@]45CCCN4C[C@H](F)C5)nc(N4C[C@H]5CC[C@@](C)(C4)N5)c23)c1C(F)(F)F [Ex-76]
2. CCc1c(F)ccc2cc3[nH]ncc3c(-c3nccc4c3sc3nc(OC[C@@]56CCCN5C[C@H](F)C6)nc(N5C[C@H]6CC[C@@H](C5)N6)c34)c12 [Ex-87]
3. C#Cc1c(F)ccc2cc3[nH]ncc3c(-c3nccc4c3sc3nc(OC[C@]5(CN6CCC6)CC5(F)F)nc(N5C[C@H]6CC[C@@H](C5)N6)c34)c12 [Ex-107]
4. C#Cc1c(F)ccc2cc3[nH]ncc3c(-c3nccc4c3sc3nc(OC[C@@]56CCCN5C[C@H](F)C6)nc(N5C[C@H]6CC[C@@H](C5)N6CCCC#N)c34)c12 [Ex-88]
List by increasing pIC50. Respond with an ordered listing of the labels, as requested. 1, 4, 3, 2
(1: 5.20, 4: 5.75, 3: 5.99, 2: 6.39)

###

system-tested: KRAS G12D (Homo sapiens, UniProt P01116, G12D)
Sequence (P01116 with tags, fused parts or gaps isoform P01116-2 G12D): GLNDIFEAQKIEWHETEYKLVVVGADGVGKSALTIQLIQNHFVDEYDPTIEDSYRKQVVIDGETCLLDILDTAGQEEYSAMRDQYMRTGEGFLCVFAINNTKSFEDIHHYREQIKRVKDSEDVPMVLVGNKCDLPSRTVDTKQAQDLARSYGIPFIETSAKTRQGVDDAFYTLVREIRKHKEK
assay-details: SOS-catalyzed nucleotide exchange assay, KRAS G12D (Procedure A)
Assay type: biochemical
experimental-setup: guanine nucleotide exchange (GNE)
assay-endpoint: IC50 (nM)

Example results:
| compound | IC50 (nM) |
| --- | --- |
| Cc1cc2[nH]nc(C#N)c2c(-c2nccc3c4c(N5C[C@H]6CC[C@@H](C5)N6)nc(OC[C@@]56CCCN5C[C@H](F)C6)nc4n(C)c23)c1C(F)F (single isomer, unassigned) | 119 |
| C#Cc1c(F)ccc2cc3[nH]ncc3c(-c3nccc4c3sc3nc(OC[C@]5(CN6CCC(COC)CC6)CC5(F)F)nc(N5C[C@H]6CC[C@@H](C5)N6)c34)c12 | 5.43 |
| Cc1cc2[nH]ncc2c(-c2nccc3c2sc2nc(OC[C@@]45CCCN4C[C@H](F)C5)nc(N4C5CNCC4C5)c23)c1C(F)(F)F | 267 |
| Cc1cc2[nH]ncc2c(-c2nccc3c2sc2nc(OC[C@@]45CCCN4C[C@H](F)C5)nc(N4C[C@H]5CC[C@@H](C4)N5)c23)c1C(F)(F)F | 6.41 |
| N#Cc1c(N)sc2c(F)cc(F)c(-c3nccc4c3sc3nc(OC[C@]5(CO)CC5(F)F)nc(N5C[C@H]6CC[C@@H](C5)N6)c34)c12 | 859 |

1. CCn1c2nc(OC[C@@]34CCCN3C[C@H](F)C4)nc(N3C[C@H]4CC[C@@H](C3)N4)c2c2ccnc(-c3c(C(F)(F)F)c(C)cc4[nH]ncc34)c21
2. C#Cc1c(F)ccc2cc3[nH]ncc3c(-c3nccc4c3sc3nc(OC[C@]5(CN6CCC7(CCC7)CC6)CC5(F)F)nc(N5C[C@H]6CC[C@@H](C5)N6)c34)c12
Kindly identify the item with the lower IC50 figure among these two: 1 and 2 Your answer should be the label attached to the chosen record. 2
(2: 6.92 nM, 1: 698 nM)

1. C#Cc1c(F)ccc2cc3[nH]ncc3c(-c3nccc4c3sc3nc(OC[C@]5(CN6CCC6)CC5(F)F)nc(N5C[C@H]6CC[C@@H](C5)N6)c34)c12
2. Cc1cc2[nH]ncc2c(-c2nccc3c2sc2nc(N4CCCN(C)CC4C)nc(N4C[C@H]5CC[C@@H](C4)N5)c23)c1C(F)(F)F (stereo partly drawn)
Out of 1 and 2 , name the one with the higher IC50. Give the chosen item's label as your response. 2
